Entries annotated with measured IC50 (µg/ml) with constrains
target: HIV Env of isolate 3301.v1.c24 (clade AC) (HIV); assay: cell-based or functional assay
Give your result in µg/mL as a bare value.

Below, each entry is followed by its recorded IC50 (µg/ml) with constrains result.
BINDER | ENDPOINT_UNIT | IC50 (µg/ml) with constrains
PGDM1400 (antibody, V domains shown) VH: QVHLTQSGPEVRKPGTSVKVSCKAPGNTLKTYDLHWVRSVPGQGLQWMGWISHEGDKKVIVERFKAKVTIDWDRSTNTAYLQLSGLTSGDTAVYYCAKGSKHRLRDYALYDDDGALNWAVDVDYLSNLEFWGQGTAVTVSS VL: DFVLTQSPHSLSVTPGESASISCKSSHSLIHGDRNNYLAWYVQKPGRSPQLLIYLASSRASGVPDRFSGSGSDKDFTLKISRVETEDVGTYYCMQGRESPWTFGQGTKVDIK | µg/mL | 0.131
ePGDM13 (antibody, V domains shown) VH: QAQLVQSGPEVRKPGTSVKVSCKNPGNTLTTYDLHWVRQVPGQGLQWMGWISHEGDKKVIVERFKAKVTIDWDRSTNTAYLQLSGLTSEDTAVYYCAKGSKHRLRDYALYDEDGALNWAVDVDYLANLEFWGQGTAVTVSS VL: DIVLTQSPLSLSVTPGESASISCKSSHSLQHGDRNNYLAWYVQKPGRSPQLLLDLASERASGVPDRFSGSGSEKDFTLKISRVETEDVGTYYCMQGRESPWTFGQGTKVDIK | µg/mL | 0.057
ePGDM9 (antibody, V domains shown) VH: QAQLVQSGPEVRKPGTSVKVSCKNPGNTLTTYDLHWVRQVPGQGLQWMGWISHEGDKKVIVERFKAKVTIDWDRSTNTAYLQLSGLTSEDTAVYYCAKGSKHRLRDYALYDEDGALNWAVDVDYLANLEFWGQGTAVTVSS VL: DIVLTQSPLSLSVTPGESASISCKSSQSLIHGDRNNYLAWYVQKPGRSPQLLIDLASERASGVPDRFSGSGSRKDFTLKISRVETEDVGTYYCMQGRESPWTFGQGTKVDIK | µg/mL | 0.021

Please turn your attention to the following entry.
Query: Report IC50 (µg/ml) with constrains for ePGDM5 (antibody, V domains shown) VH: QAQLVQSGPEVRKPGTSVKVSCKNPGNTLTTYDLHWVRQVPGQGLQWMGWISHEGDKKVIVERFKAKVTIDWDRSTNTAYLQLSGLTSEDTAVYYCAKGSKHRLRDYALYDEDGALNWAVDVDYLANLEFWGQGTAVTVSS VL: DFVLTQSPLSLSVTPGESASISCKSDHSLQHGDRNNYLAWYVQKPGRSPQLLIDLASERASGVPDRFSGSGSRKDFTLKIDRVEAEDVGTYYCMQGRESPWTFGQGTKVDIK
Response: 0.043
